Endpoint summary: IC50, system: ROCK2 (Homo sapiens, UniProt O75116), multiple sources combined.
Give bare numbers, in nM.

Some compounds with known IC50 results, for comparison:
For the compound `CCc1ccc(C(=O)N2CCC3(CC2)CCN(c2ccc(-c4cn[nH]c4)c(OC)c2)C3=O)cc1` , what IC50 is on record?
50

Queued: `COc1cc(N2CCC3(CCN(C(=O)c4cnc(Cl)cn4)CC3)C2=O)ccc1-c1cn[nH]c1`
200

Continue with Cc1c(C(=O)N[C@H]2C[C@]3(C2)C[C@H](Oc2nc4c(cnn4C)cc2C(N)=O)C3)cnn1-c1ccc(-c2cnn(C)c2)cc1 (stereo partly shown)
0.8

Also `COc1cccc([C@@H](C)NC(=O)c2ccc(-c3cn[nH]c3)cc2OCCO)c1` , if possible.
2.31

Moving on to the next compound: `Cc1cc(C(=O)NCc2c(F)cccc2Cl)ccc1-c1cn[nH]c1`
9.83

Quick batch: IC50 for everything below.
1. COc1cc(N2CCC3(CCN(C(=O)c4c[nH]c5ccc(C#N)cc45)CC3)C2=O)ccc1-c1cn[nH]c1
2. CN(CC#N)C(=O)c1cc2ccc(-c3nccc(Nc4ccc(-c5cn[nH]c5)cc4)n3)cc2[nH]1

1. 718
2. 116

Param item = `COCn1c(C(=O)N2CC(F)(F)C2)cc2ccc(-c3nccc(Nc4ccc5c(=O)[nH]ccc5c4)n3)cc21` ; retrieve measured IC50.
108

* * *

Collected set of pIC50 measured with ROCK2 (Homo sapiens) across studies.
Give bare numbers, as −log10 of the molar value.

Completed entries (count: 5):
Form field - read-out: pIC50; system: ROCK2 (Homo sapiens); submitted item: `NC[C@@H](C(=O)Nc1cc2ccncc2s1)c1ccc(CCO[N+](=O)[O-])cc1`
8.22

How about `CN1CCc2ccc(NC(=O)c3cccc([C@@H](CO)NC(=O)c4ccc(-c5ccncc5)cc4)c3)cc2C1=O` ?
9.41

Field entry: `O=C(OC1CC(F)(F)C1)N1CCc2cc(-c3nccc(Nc4ccc(-c5cn[nH]c5)cc4)n3)ccc2C1`
6.66

Same read-out for CC(C[C@@H]1NC(=O)N([C@H]2C[C@@]3(C[C@H](Oc4ncccc4C(N)=O)C3)C2)C1=O)c1ccccc1 (stereo partly drawn) ?
8.22

Also, `COc1cccn2nc(NC(=O)Cc3ccc(Oc4ncccc4C(N)=O)c(F)c3)nc12` please.
7.82

Here's the next entry for you.
// fetch ROCK2 (Homo sapiens) pIC50 for `Cn1c(C(=O)N2C[C@@H](O)[C@@H](F)C2)cc2ccc(-c3nccc(Nc4ccc(-c5cn[nH]c5)cc4)n3)cc21`
7.82

* * *

Note to self: these compounds have IC50 reported for ROCK2 (Homo sapiens, UniProt O75116) in various publications.

Example entries begin here.
# IC50 lookup, item COc1cccc(NC2CCN(c3ccc4c(n3)OCc3n[nH]cc3-4)C2=O)c1 (racemic)
10 to 100 nM

Similarly, `NC(=O)c1cccnc1Oc1ccc(CC(=O)Nc2ccn(-c3ccc(C(F)(F)F)cn3)n2)cc1F` ?
191 nM

Try this compound too: O=C1C(c2ccc(-c3n[nH]c(=O)c4ccccc34)cc2)CCN1c1ccccc1 (stereo not shown)
100 to 500 nM

---
If you can, please state the reported IC50 value of `CCc1cc(-n2nc(C)n(Cc3ccccc3)c2=O)ccc1-c1cn[nH]c1` .
5 to 50 nM
